Where do these numbers come from? They come from patent US11472838B2.

Give Selectivity for every item shown.
target: TG2 (Homo sapiens (Human)); assay: Inhibitory activity against TG2 (isopeptidase assay), Tables 3 and 4; format: biochemical; settings: TG2 versus FXIII, isopeptidase assay, Table 3
Sequence (P21980 whole entry): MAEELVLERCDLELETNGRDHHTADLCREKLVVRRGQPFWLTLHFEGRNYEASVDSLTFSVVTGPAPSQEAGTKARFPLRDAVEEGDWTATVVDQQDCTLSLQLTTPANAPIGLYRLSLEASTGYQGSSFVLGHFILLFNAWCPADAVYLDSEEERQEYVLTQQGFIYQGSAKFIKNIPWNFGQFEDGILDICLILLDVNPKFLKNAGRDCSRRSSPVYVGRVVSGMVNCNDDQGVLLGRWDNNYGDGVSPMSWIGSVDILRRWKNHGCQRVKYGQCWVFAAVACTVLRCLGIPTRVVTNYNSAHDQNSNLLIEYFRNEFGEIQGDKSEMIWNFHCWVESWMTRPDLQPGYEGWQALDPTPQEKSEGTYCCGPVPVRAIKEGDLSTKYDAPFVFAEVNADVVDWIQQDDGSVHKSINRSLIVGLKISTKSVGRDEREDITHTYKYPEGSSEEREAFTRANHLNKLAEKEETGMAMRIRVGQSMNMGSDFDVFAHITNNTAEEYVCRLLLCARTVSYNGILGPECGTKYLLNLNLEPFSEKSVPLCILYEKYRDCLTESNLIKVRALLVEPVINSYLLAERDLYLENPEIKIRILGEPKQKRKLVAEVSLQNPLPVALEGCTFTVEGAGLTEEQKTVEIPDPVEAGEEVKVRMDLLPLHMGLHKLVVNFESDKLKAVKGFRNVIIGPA
*1 amine or outer side, *2 acyl side, *3 side chain or, on linkers, in order; H or OH if unused. Where a SMILES comes first, the peptide text is derived from it. [ ]: non-standard residue; d: D form. The star is where a group is joined. Benzoyl(3-COOH,5-NO2) = O=C(O)c1cc(C(=O)*)cc([N+](=O)[O-])c1; Isonicotinoyl(3-COOH) = O=C(O)c1cnccc1C(=O)*; X1 = COC(=O)/C=C/CC[C@H](N[*:1])C(=O)[*:2]; X3 = O=C(c1cnc(O)c([N+](=O)[O-])c1)*; Pro(4-oxo) = O=C1CN[C@H](C(=O)O)C1; Chg = N[C@H](C(=O)O)C1CCCCC1; Tle = CC(C)(C)[C@H](N)C(=O)O; αMeP = C[C@@]1(C(=O)O)CCCN1; X6 = Cc1cccc(C)c1OCC(C)N*; X7 = O=C(O)c1nccnc1C(=O)*

TG2 (Homo sapiens (Human)) assay, compound COC(=O)/C=C/CC[C@H](NC(=O)c1ccncc1C(=O)O)C(=O)N[C@H](C(=O)N1CC(=O)C[C@H]1C(=O)N[C@H](C(=O)N[C@H](C(=O)OC)C1CCCCC1)C1CCCCC1)C(C)(C)C [35a/b] ({Isonicotinoyl(3-COOH)}-[X1][Tle][Pro(4-oxo)][Chg][Chg]-OMe) , recorded Selectivity = 2.3

Assay TG2 (Homo sapiens (Human)), sample COC(=O)/C=C/CC[C@H](NC(=O)c1cnc(O)c([N+](=O)[O-])c1)C(=O)N[C@H](C(=O)N1CC(=O)C[C@H]1C(=O)N[C@H](C(=O)N[C@H](C(N)=O)C1CCCCC1)C1CCCCC1)C(C)(C)C [Compound 6] (X3-[X1][Tle][Pro(4-oxo)][Chg][Chg]-NH2) , Selectivity read: 0.7

Selectivity on TG2 (Homo sapiens (Human)) for COC(=O)/C=C/CC[C@H](NC(=O)c1cc(C(=O)O)cc([N+](=O)[O-])c1)C(=O)N[C@H](C(=O)N1CC(=O)C[C@H]1C(=O)N[C@@H](CC(C)C)C(=O)N1CCC[C@@]1(C)C(=O)NC(C)COc1c(C)cccc1C)C(C)(C)C (stereo partly shown) [Compound 30] ({Benzoyl(3-COOH,5-NO2)}-[X1][Tle][Pro(4-oxo)]L[αMeP]-X6) is 1.1

Observed Selectivity on TG2 (Homo sapiens (Human)), entry COC(=O)/C=C/CC[C@H](NC(=O)c1nccnc1C(=O)O)C(=O)N[C@H](C(=O)N1CC(=O)C[C@H]1C(=O)N[C@H](C(=O)N[C@H](C(N)=O)C1CCCCC1)C1CCCCC1)C(C)(C)C [Compound 3] (X7-[X1][Tle][Pro(4-oxo)][Chg][Chg]-NH2) , equals 0.8

----------
target: UniProt P21980; assay: Inhibitory activity against TG2 (isopeptidase assay), Tables 3 and 4; assay type: biochemical; settings: Table 4; read-out: TG2 IC50
*1 amine or outer side, *2 acyl side, *3 side chain or, on linkers, in order; H or OH if unused. Where a SMILES comes first, the peptide text is derived from it. [ ]: non-standard residue; d: D form. The star is where a group is joined. ξ: configuration not given here. Benzoyl(2-COOH-4,5-Cl2) = O=C(O)c1cc(Cl)c(Cl)cc1C(=O)*; Nle(5E-ene,6-CO2Et) = CCOC(=O)/C=C/CC[C@H](N)C(=O)O; X1 = COC(=O)/C=C/CC[C@H](N[*:1])C(=O)[*:2]; Pro(4-oxo) = O=C1CN[C@H](C(=O)O)C1; Thiophene2carbonyl = O=C(c1cccs1)*; Ile(3ξ) = CCC(C)[C@H](N)C(=O)O; Thr(3ξ) = CC(O)[C@H](N)C(=O)O; Chg = N[C@H](C(=O)O)C1CCCCC1; Nle = CCCC[C@H](N)C(=O)O; Cbz = O=C(OCc1ccccc1)*
Assign IC50 to each entry below.
Number in nM, nothing else.

Measured IC50 for this entry COC(=O)/C=C/CC[C@H](NC(=O)[C@H](CC(N)=O)NC(C)=O)C(=O)N[C@@H](CCC(=O)O)C(=O)N[C@@H](CCC(N)=O)C(=O)N[C@H](C(=O)N[C@@H](CO)C(=O)N1CCC[C@H]1C(=O)N[C@@H](CC(C)C)C(=O)O)C(C)C [Ref. 21, reference compound] (Ac-N[X1]EQVSPL-OH) on UniProt P21980: 421

UniProt P21980 IC50 of CCOC(=O)/C=C/CC[C@H](NC(=O)c1cc(Cl)c(Cl)cc1C(=O)O)C(=O)N[C@H](C(=O)N1CCC[C@H]1C(=O)N[C@@H](CC(C)C)C(=O)N[C@H](C(N)=O)C1CCCCC1)C(C)C [Compound 38] ({Benzoyl(2-COOH-4,5-Cl2)}-[Nle(5E-ene,6-CO2Et)]VPL[Chg]-NH2) is 760

Query CCCC[C@H](NC(=O)[C@H](CC/C=C/C(=O)OC)NC(=O)[C@@H]1CC(=O)CN1)C(=O)N[C@H](C(=O)N[C@@H](CC(C)C)C(=O)N1CCC[C@H]1C(=O)N[C@@H](Cc1c[nH]c2ccccc12)C(=O)N1CCC[C@H]1C(=O)O)C(C)CC (some centres unmarked) [Ref. 23, reference compound] (H-[Pro(4-oxo)][X1][Nle][Ile(3ξ)]LPWP-OH) on UniProt P21980; IC50 returned: 102

Entry CCCC[C@H](NC(=O)[C@H](CC/C=C/C(=O)OC)NC(=O)[C@@H](CC(=O)O)NC(C)=O)C(=O)N[C@@H](CCCC)C(=O)N[C@@H](CC(C)C)C(=O)N1CCC[C@H]1C(=O)O [Ref. 14, reference compound] (Ac-[dD][X1][Nle][Nle]LP-OH) ; assay system UniProt P21980; IC50 recorded at 2150

Tested on UniProt P21980: COC(=O)/C=C/CC[C@H](NC(=O)[C@H](CC(N)=O)NC(C)=O)C(=O)N[C@@H](CCC(=O)O)C(=O)N[C@@H](CCC(N)=O)C(=O)N[C@H](C(=O)N[C@@H](CO)C(=O)N1CCC[C@H]1C(=O)N[C@@H](CC(C)C)C(=O)N[C@H](C(=O)N[C@@H](CC(C)C)C(=O)O)C(C)O)C(C)C (stereo partly drawn) [Ref. 19, reference compound] (Ac-N[X1]EQVSPL[Thr(3ξ)]L-OH) . Observed IC50: 370

Field IC50 (UniProt P21980), entry CCCC[C@H](NC(=O)[C@H](CC/C=C/C(=O)OC)NC(=O)[C@@H]1CC(=O)CN1)C(=O)N[C@H](C(=O)N[C@@H](CC(C)C)C(=O)N1CCC[C@H]1C(=O)O)C(C)CC (some centres unmarked) [Ref. 16, reference compound] (H-[Pro(4-oxo)][X1][Nle][Ile(3ξ)]LP-OH) : 196

Short answer on UniProt P21980 for CCOC(=O)/C=C/CC[C@H](NC(=O)OCc1ccccc1)C(=O)N[C@H](C(=O)N1CCC[C@H]1C(=O)N[C@@H](CC(C)C)C(=O)N[C@H](C(N)=O)C1CCCCC1)C1CCCCC1 [Ref. 12, reference compound] (Cbz-[Nle(5E-ene,6-CO2Et)][Chg]PL[Chg]-NH2) , IC50: 345

Observed IC50 on UniProt P21980, entry CCOC(=O)/C=C/CC[C@H](NC(=O)c1cccs1)C(=O)N[C@@H](CCC(N)=O)C(=O)N1CCC[C@H]1C(=O)N[C@@H](CC(C)C)C(=O)N[C@H](C(N)=O)C1CCCCC1 [Ref. 11, reference compound] (Thiophene2carbonyl-[Nle(5E-ene,6-CO2Et)]QPL[Chg]-NH2) , equals 253
